- target system: EGFR (d746-750/T790M) (Homo sapiens, UniProt P00533, DEL746-750/T790M)
- Sequence (P00533 with tags, fused parts or gaps DEL746-750/T790M limits assumed): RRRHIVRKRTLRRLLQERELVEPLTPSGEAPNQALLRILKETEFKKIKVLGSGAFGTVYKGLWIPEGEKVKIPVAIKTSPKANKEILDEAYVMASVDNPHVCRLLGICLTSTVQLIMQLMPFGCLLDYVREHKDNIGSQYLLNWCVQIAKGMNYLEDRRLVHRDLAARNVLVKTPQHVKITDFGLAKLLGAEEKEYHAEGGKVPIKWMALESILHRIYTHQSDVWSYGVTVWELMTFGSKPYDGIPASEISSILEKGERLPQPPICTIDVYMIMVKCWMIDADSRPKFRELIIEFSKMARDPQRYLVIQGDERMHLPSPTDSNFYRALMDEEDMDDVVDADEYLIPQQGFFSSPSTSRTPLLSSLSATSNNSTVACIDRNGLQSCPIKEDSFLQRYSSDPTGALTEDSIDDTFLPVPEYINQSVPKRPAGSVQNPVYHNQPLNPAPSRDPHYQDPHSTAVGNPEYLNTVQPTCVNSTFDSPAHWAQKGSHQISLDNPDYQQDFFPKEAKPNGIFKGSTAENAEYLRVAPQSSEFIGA
- assay protocol: EGFR (d746-750/T790M) kinase inhibitory activity (in vitro)
- condition parameters: recombinant human protein, ATP 1.5 μM
pIC50: −log10 of the molar value.
The label depends only on pIC50: true (1) if it is at least 9, false (0) if it is smaller.

Below, 5 compounds whose answers are already recorded.
compound	target system	label class
Nc1ncnc2c1c(-c1cnc3ccccc3c1)c1n2C[C@@H](NC(=O)/C=C/Cl)CC1	EGFR (d746-750/T790M) (Homo sapiens, UniProt P00533, DEL746-750/T790M)	true (1)
Nc1ncnc2c1c(-c1cccc(NC(=O)c3ccccc3)c1)c1n2CCCC1 [Comp. Ex. 1, reference compound]	EGFR (d746-750/T790M) (Homo sapiens, UniProt P00533, DEL746-750/T790M)	false (0)
CN(C)C/C=C/C(=O)NC1CCc2c(-c3cnc4ccccc4c3)c3c(N)ncnc3n2C1 (stereo not shown)	EGFR (d746-750/T790M) (Homo sapiens, UniProt P00533, DEL746-750/T790M)	false (0)
C=CC(=O)N[C@H]1CCc2c(-c3cnc4ccccc4c3)c3c(N)ncnc3n2C1 (single isomer, unassigned)	EGFR (d746-750/T790M) (Homo sapiens, UniProt P00533, DEL746-750/T790M)	true (1)
C=CC(=O)N[C@H]1CCCc2c(-c3cnc4ccccc4c3)c3c(N)ncnc3n2C1	EGFR (d746-750/T790M) (Homo sapiens, UniProt P00533, DEL746-750/T790M)	false (0)

Query: Is pIC50 at least 9? Consider "C=CC(=O)N[C@@H]1CCCc2c(-c3cnc4ccccc4c3)c3c(N)ncnc3n2C1"
Response: false (0)

Query: Next up: "C=CC(=O)N[C@H]1CCc2c(-c3cnc4ccccc4c3)c3c(N)ncnc3n2CC1"
Response: true (1)

Query: Next up: C=CC(=O)N[C@@H]1CCc2c(-c3cnc4ccccc4c3)c3c(N)ncnc3n2C1 (single isomer, unassigned)
Response: false (0)

---

# maps each entry to its pIC50
- target system: EGFR (T790M/L858R) (Homo sapiens, UniProt P00533, L858R/T790M)
- Sequence (P00533 25-1210 T790M/L858R): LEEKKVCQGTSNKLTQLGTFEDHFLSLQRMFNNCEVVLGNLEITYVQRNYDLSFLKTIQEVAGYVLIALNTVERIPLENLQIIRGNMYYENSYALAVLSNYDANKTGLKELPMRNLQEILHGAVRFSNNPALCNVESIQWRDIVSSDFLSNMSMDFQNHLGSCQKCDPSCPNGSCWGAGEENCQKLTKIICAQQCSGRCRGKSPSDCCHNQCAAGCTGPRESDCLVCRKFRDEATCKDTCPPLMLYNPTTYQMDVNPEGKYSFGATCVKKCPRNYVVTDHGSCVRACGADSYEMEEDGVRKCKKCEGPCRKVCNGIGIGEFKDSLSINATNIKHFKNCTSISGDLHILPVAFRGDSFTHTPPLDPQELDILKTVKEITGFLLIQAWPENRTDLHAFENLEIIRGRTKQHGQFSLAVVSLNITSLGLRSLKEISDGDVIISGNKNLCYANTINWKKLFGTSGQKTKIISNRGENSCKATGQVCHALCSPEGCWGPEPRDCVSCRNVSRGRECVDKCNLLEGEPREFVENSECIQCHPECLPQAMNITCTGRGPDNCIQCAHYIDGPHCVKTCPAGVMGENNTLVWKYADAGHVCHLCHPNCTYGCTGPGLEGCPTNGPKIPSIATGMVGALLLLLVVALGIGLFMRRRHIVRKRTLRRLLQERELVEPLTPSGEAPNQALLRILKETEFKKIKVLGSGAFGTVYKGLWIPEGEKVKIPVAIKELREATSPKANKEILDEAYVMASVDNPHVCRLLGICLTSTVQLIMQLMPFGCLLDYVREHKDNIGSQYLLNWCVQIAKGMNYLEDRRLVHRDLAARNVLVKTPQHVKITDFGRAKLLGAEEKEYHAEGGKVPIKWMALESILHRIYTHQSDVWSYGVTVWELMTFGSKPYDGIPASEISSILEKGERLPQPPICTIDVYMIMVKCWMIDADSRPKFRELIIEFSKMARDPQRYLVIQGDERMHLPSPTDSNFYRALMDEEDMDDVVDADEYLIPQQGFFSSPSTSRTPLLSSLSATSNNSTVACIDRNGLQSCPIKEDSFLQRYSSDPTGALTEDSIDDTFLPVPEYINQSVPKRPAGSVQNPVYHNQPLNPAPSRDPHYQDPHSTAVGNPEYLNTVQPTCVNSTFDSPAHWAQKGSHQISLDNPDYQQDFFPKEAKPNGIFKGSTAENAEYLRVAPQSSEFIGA
- assay protocol: EGFR (T790M/L858R) kinase inhibitory activity (in vitro)
- condition parameters: recombinant human protein, ATP 1 μM, 120 minutes
Recall that pIC50 is obtained by taking minus log10 of the concentration measured in molar.

compound	recorded metric	val
C=CC(=O)N[C@@H]1CCc2c(-c3cnc4ccccc4c3)c3c(N)ncnc3n2C1 (single isomer, unassigned)	pIC50	8.28
C=CC(=O)N(C)C1CCc2c(-c3cnc4ccccc4c3)c3c(N)ncnc3n2C1 (stereo not shown)	pIC50	8.89
Nc1ncnc2c1c(-c1cnc3ccccc3c1)c1n2C[C@@H](NC(=O)/C=C\Cl)CC1	pIC50	8.92
C=CC(=O)N[C@H]1CCc2c(-c3cnc4ccccc4c3)c3c(N)ncnc3n2C1 (single isomer, unassigned)	pIC50	9.52
C=CC(=O)N[C@H]1CCc2c(-c3cnc4ccccc4c3)c3c(N)ncnc3n2CC1	pIC50	8.85

Query: So what does the record say about pIC50 for "C=CC(=O)N[C@@H]1CCCc2c(-c3cnc4ccccc4c3)c3c(N)ncnc3n2C1" ?
Response: 6.80

Query: Next up: CN(C)C/C=C/C(=O)NC1CCc2c(-c3cnc4ccccc4c3)c3c(N)ncnc3n2C1 (stereo not shown)
Response: 8.17

Query: Next up: "Nc1ncnc2c1c(-c1cnc3ccccc3c1)c1n2C[C@@H](NC(=O)/C=C/Cl)CC1"
Response: 9.40

Query: Next up: "C=CC(=O)N[C@H]1CCCc2c(-c3cnc4ccccc4c3)c3c(N)ncnc3n2C1"
Response: 7.74
